src = patent US20240327353A1

Molecular target: 5-HT2AR (Homo sapiens, UniProt P28223)
Construct: host or cells: HEK293, transient
Sequence (P28223 whole entry): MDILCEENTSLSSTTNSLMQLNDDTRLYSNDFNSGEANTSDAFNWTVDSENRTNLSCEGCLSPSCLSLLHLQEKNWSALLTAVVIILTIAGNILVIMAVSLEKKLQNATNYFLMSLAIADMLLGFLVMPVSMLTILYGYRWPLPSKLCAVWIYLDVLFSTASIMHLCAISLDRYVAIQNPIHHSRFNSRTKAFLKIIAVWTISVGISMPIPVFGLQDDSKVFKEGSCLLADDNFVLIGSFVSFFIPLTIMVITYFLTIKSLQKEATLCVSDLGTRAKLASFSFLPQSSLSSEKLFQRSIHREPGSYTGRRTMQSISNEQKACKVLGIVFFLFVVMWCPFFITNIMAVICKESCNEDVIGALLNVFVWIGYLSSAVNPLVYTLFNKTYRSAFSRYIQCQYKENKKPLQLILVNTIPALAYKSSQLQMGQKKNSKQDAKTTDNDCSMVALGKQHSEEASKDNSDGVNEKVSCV
Assay: Radioligand binding (competitive displacement and saturation), cell membranes
Conditions: displacement of [^3H]ketanserin; mean of n independent experiments, ± SD where n ≥ 5
Method: Transfections were performed for 48 hours.
Entries annotated with measured pKi 5-HT2AR
measurement name: pKi 5-HT2AR

>>> readout_value("CN(C)C1Cc2ccccc2C(c2cccc(-c3cccc(F)c3)c2)C1 [(2R,4S)-2h]")
8.03
>>> readout_value("CN(C)[C@@H]1Cc2ccccc2[C@@H](c2cccc(-c3cccc(F)c3)c2)C1 [(2S,4R)-2h]")
9.22
>>> readout_value("CN(C)[C@@H]1Cc2ccccc2[C@H](c2cccc(-c3cccc(F)c3)c2)C1 (single isomer, unassigned) [(2R,4R)-3h]")
9.46
>>> readout_value("CN(C)[C@@H]1Cc2ccccc2[C@H](c2cccc(-c3cccc(F)c3)c2)C1 (single isomer, unassigned) [(2S,4S)-3h]")
7.69

---

Molecular target: 5-HT2CR (Homo sapiens, UniProt P28335)
Sequence (P28335 33-458): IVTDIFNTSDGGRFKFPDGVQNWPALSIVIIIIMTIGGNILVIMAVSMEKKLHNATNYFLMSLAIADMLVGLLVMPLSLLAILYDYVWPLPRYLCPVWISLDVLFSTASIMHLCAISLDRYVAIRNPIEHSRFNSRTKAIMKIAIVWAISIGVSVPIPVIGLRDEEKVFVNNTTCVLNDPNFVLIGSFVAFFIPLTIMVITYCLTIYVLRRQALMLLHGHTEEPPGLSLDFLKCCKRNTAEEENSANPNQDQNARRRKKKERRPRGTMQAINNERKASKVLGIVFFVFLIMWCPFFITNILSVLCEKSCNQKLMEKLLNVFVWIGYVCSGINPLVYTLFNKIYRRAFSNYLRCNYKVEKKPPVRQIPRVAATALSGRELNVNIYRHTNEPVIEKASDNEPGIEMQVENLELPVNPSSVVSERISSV
Experiment: biochemical
pKi: −log10 of the molar value.
Entries annotated with measured pKi
measurement name: pKi

>>> readout_value("CN(C)[C@@H]1Cc2ccccc2[C@@H](c2cccc(-c3ccc(Cl)cc3)c2)C1 [(2S,4R)-2j]")
8.31
>>> readout_value("CN(C)[C@@H]1Cc2ccccc2[C@H](c2cccc(-c3ccc(Cl)cc3)c2)C1 (single isomer, unassigned) [(2R,4R)-3j]")
8.03
>>> readout_value("CN(C)[C@@H]1Cc2ccccc2[C@H](c2cccc(-c3ccc(Cl)cc3)c2)C1 (single isomer, unassigned) [(2S,4S)-3j]")
7.01

---

biological target: 5-HT2CR (Homo sapiens); test: biochemical
pKi: −log10 of the molar value.
measurement name: pKi

>>> readout_value("CN(C)[C@@H]1Cc2ccccc2[C@H](c2cccc(-c3cccs3)c2)C1 (single isomer, unassigned) [(2R,4R)-3c]")
7.62
>>> readout_value("CN(C)[C@@H]1Cc2ccccc2[C@H](c2cccc(-c3ccccc3)c2)C1 (single isomer, unassigned)")
7.57
>>> readout_value("CN(C)[C@@H]1Cc2ccccc2[C@H](c2cccc(F)c2)C1 (single isomer, unassigned) [(2R,4R)-3b′]")
6.60
>>> readout_value("CN(C)[C@@H]1Cc2ccccc2[C@@H](c2cccc(-c3ccccc3)c2)C1 (single isomer, unassigned) [(2S,4R)-2f]")
8.48
